Hello, the source for this data is patent US20250051443A1, in case you need it.

Biological target: T1, human CD3 (human, UniProt P07766 23-207; P09693 23-182; P04234 22-171)
T1 construct: whole, on cells; also called CD3 on Jurkat T cells; CD3 on primary human T cells
Test: flow competition on Jurkat, 100 nM unlabeled mAb; competitor AF488-SK7 1.5 nM
Entries and their % residual fluorescence of labeled mAb
Kindly answer with a numeric value in %, unit omitted.

F332-7B7 (antibody, mouse IgG2a, V domains shown, also called F332-7B7-2) VH: QVQLQQPGTELGKPGTSVKLSCKASGYTFTNYWMHWVKQRPGQGLEWIGNINPNSGSTNYNQKFKSKATLTLDKSSSTAYMQFSTLTSEDSAVYYCTRDSSGQYYFDYWGQGTTLTVSS VL: DIVMSQSPSSLAVSAGEKVTMSCKSSQSLLNSRTRKNYLAWYQQKPGQSPKLLIYWASTRESGVPDRFTGSGSGTDFTLTISSVQAEDLAVYYCIQSFHLRTFGGGTKLEIK ... 53
F332-6D7 (antibody, mouse IgG2a, V domains shown, also called F332-6D7-2; F332-6D7 (7G4)) VH: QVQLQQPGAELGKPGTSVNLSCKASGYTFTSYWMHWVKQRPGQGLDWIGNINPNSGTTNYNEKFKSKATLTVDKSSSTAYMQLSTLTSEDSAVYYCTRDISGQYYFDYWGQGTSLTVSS VL: DIVMSQSPSSLAVSAGEKVTMSCKSSQSLLNSRTRKNYLAWYQQKPGQSPKLLIYWASTRESGVPDRFTGSGSGTDFTLTISSVQAEDLAVYYCKQSYSLRTFGGGSKLEIK ... 44

INPUT: Requested read-out: % residual fluorescence of labeled mAb. Entry: F332-5F2 (antibody, mouse IgG2b, V domains shown, also called F332-5F2-2; F332-5F2 (6G8, 13A3)) VH: QVQLQQPGAELGKPGTSVKLSCKASGYTFTSYWMHWVKQRPGQGLEWIGNINPNGGDSNYNEKFKSKATLTVDKSSSTAYMQLSTLTSEDSAVYYCTRDISGQYYFDFWGQGTSLTVFS VL: DILMSQSPSSLAVSAGEQVTMSCKSSQSLLNSRTRKNYLAWYQQKPGQSPKLLIFWASTRKSGVPDRFTGSGSGTYFTLTISSVQAEDLAVYYCTQSYNLRTFGGGTKLEIK
OUTPUT: 49
